Reference source for all entries: the DeepSol protein solubility set

Experiment: soluble on expression in E. coli; label from the status in PepcDB or PDB records
parameter_measured: soluble on expression in E. coli

// below: answered sequences
entry_sequence=GPGSMRGSDAMATHASRWRPPQNPAAVRKYSNETAAPQPPAKIIMEDHSLAEVFRRSAAFQRILAYVQGCSEAVESTPNHQRLSATVDDCDDTVRYLVTDYLPRLHDIVTAIPLEDMAQQRFGNRAKRVFHARLEETVVADMEKLVRTFPTSAGRSEEAITDMATEVAAYVMDSFGNATRLDYGSGHELHFFIVIMICLEEHGDGGGSLKDEPAVLVPLEVPPPPPVPPMERAEVRKRRQDYIFYIFHEYMRLVRRLQKRYSLEPAGSHGVWGLDDYHHIPYIFGGAQLINAEVQPVKPAAGQEAMLVLPKHICDRAKVEMLKDSYLYFSMIAWILENKTGPFHEHSNMLYNISGVEHWSKIYSGMVKMFAAEVLAKYNVSQHLLFGRHLPWNTKTM observed_measurement=soluble
entry_sequence=MSNVKHSKLLILGSGPAGYTAAVYAARANLKPVLVTGMQQGGQLTTTTEVENWPGDAEGLTGPALMERMKEHAERFDTEIVFDHINSVDLSSRPFRLTGDSQEYTCDALIISTGASAKYLGLESEEAFKGRGVSACATCDGFFYRNQKVAVVGGGNTAVEEALYLSNIASEVHLVHRRDSFRSEKILIDRLMDKVANGNIVLHTHRTLDEVLGDEMGVTGVRLKDTQSDMTENLDVMGVFIAIGHQPNSQIFEGQLEMKNGYIVVKSGLEGNATQTSIEGVFAAGDVMDHNYRQAITSAGTGCMAALDAERYLDSQGK observed_measurement=soluble
entry_sequence=MGSDKIHHHHHHMIRETRQIHVGNVAIGGGAPCSVQSMCNTDTRDVAATLSQVLSLSSAGCEIVRCAVPDMAAAEALGEIKRQSPIPVIADIHFDYRLALRVLEGGIDGLRLNPGNIGERWKVEEVVKAARERLVPIRIGVNAGSLEKELLEKYGHPTAEAMVESALGHVRILEDIGYDQIKISLKASDVMKTVEAYRLLAQKVDYPLHIGITEAGTIFSGTIKSSVGLGILLADGIGDTMRVSLTGDPVDEVRVGFEILKALGLRQRGINFVSCPTCGRCQINLIGVAQEVENRLAAIDTPLTVAVMGCVVNGPGEAREADVGIAGGKGEGLLFRHGEIVRKVPEAEMADALIAEVEQMAKEKTHS observed_measurement="not soluble"
entry_sequence=DDGEPYALCVVATDITDQKQRERELARLTDEYAAVFENTNDAIALVDIEEPADDPTFRYVRTNEAYERQTGFDTESLTGQTPVEAAGPDIGRRIADHYKQCVSAGEPITFEERDLHPTGVWETQVTPIAADG observed_measurement="not soluble"

We next turn to a different sequence, shown below.
Item under review: MGSDKIHHHHHHVWNDRVELSGKCEYALLALIELARGHSNGEPQQIKQLADRQNIPDRYLEQLLATLRRGGIVRSVRGARGGYLLAREPWQISMQDVVHCIDGTEMQRTEAIDQQSVTIERQILVDINVELCKAVEDVLAAYSLQDLLEIRENRASTDLMYYI . Reported soluble on expression in E. coli?
not soluble
